Entries and their pIC50
- System: A2058
- EXPERIMENTAL DETAILS: MTT assay, A2058
- Assay type: cell-based
- REPORTED CONDITIONS: Homo sapiens, A2058, 48 h, human melanoma, 48 h incubation
pIC50: −log10 of the molar value.

Sample answers from the record:
O=C(COc1ccc(/C=C2\SC(=O)N(Cc3cccc4cc5ccccc5nc34)C2=O)cc1)Nc1ccccc1C(F)(F)F | < 4.30
O=C(COc1ccc(/C=C2\SC(=O)N(Cc3c4ccccc4nc4ccccc34)C2=O)cc1)Nc1ccccc1 | < 4.30
O=C(COc1ccc(/C=C2\SC(=O)N(Cc3c4ccccc4nc4ccccc34)C2=O)cc1)Nc1ccc([N+](=O)[O-])cc1 | < 4.30
COc1cc(/C=C2\SC(=O)N(Cc3cccc4cc5ccccc5nc34)C2=O)ccc1OCC(=O)Nc1ccccc1 [Compound 13a] | 4.31
COc1cc(/C=C2\SC(=O)N(Cc3c4ccccc4nc4ccccc34)C2=O)ccc1OCC(=O)Nc1ccccc1C(F)(F)F [Compound 12e] | < 4.30

# query: pIC50 of entry `O=C(COc1ccc(/C=C2\SC(=O)N(Cc3cccc4cc5ccccc5nc34)C2=O)cc1)Nc1ccc([N+](=O)[O-])cc1` < 4.30

Same question, COc1cc(/C=C2\SC(=O)N(Cc3cccc4cc5ccccc5nc34)C2=O)ccc1OCC(=O)Nc1cc(OC)c(OC)c(OC)c1 [Compound 13c] this time 4.37

====

In this section we review reported melting point values for a set of compounds.

COc1cc(/C=C2\SC(=O)N(Cc3c4ccccc4nc4ccccc34)C2=O)ccc1OCC(=O)Nc1cc(OC)c(OC)c(OC)c1 [Compound 12c] | 268 to 269 °C

melting point for `O=C(COc1ccc(/C=C2\SC(=O)N(Cc3c4ccccc4nc4ccccc34)C2=O)cc1)Nc1ccccc1` ? 249 to 250 °C

Now the compound COc1cc(/C=C2\SC(=O)N(Cc3cccc4cc5ccccc5nc34)C2=O)ccc1OCC(=O)Nc1ccccc1 [Compound 13a] 213 to 214 °C

Also `COc1cc(NC(=O)COc2ccc(/C=C3\SC(=O)N(Cc4c5ccccc5nc5ccccc45)C3=O)cc2)cc(OC)c1` ? 280 to 282 °C

Entry to check: `O=C(COc1ccc(/C=C2\SC(=O)N(Cc3cccc4cc5ccccc5nc34)C2=O)cc1)Nc1ccc([N+](=O)[O-])cc1` > 300 °C (dec.)

Next: `COc1cc(NC(=O)COc2ccc(/C=C3\SC(=O)N(Cc4cccc5cc6ccccc6nc45)C3=O)cc2)cc(OC)c1OC` 193 to 194 °C (dec.)

How about this compound: COc1cc(/C=C2\SC(=O)N(Cc3cccc4cc5ccccc5nc34)C2=O)ccc1OCC(=O)Nc1cc(OC)c(OC)c(OC)c1 [Compound 13c] 228 to 230 °C (dec.)

What about `COc1cc(NC(=O)COc2ccc(/C=C3\SC(=O)N(Cc4cccc5cc6ccccc6nc45)C3=O)cc2)cc(OC)c1` ? 168 to 169 °C (dec.)

Here is the next compound: COc1cc(/C=C2\SC(=O)N(Cc3c4ccccc4nc4ccccc34)C2=O)ccc1OCC(=O)Nc1cccc(C(F)(F)F)c1 [Compound 12f] 269 to 270 °C

Same thing, different compound: COc1cc(/C=C2\SC(=O)N(Cc3cccc4cc5ccccc5nc34)C2=O)ccc1OCC(=O)Nc1ccc([N+](=O)[O-])cc1 [Compound 13d] 254 to 257 °C (dec.)

Subsequent entry: `O=C(COc1ccc(/C=C2\SC(=O)N(Cc3c4ccccc4nc4ccccc34)C2=O)cc1)Nc1ccccc1C(F)(F)F` 256 to 257 °C (dec.)

Okay, and COc1cc(/C=C2\SC(=O)N(Cc3cccc4cc5ccccc5nc34)C2=O)ccc1OCC(=O)Nc1cccc(C(F)(F)F)c1 [Compound 13f] ? 203 to 205 °C

Subsequent entry: `COc1cc(NC(=O)COc2ccc(/C=C3\SC(=O)N(Cc4c5ccccc5nc5ccccc45)C3=O)cc2)cc(OC)c1OC` 248 to 249 °C

Can you handle `O=C(COc1ccc(/C=C2\SC(=O)N(Cc3cccc4cc5ccccc5nc34)C2=O)cc1)Nc1ccccc1` next? 258 to 259 °C (dec.)

====

- System: Bj-5ta
- EXPERIMENTAL DETAILS: MTT assay, BJ-5ta non-cancerous fibroblasts
- Format: cell-based, human
- REPORTED CONDITIONS: non-cancerous dermal fibroblasts, 48 h incubation
Where a name gives a salt, the structure may show the parent alone.
METRIC NAME: IC50

Reference set, count: 4
O=C(COc1ccc(/C=C2\SC(=O)N(Cc3cccc4cc5ccccc5nc34)C2=O)cc1)Nc1ccccc1 [8a·HCl] | > 50 µM
COc1cc(/C=C2\SC(=O)N(Cc3cccc4cc5ccccc5nc34)C2=O)ccc1OCC(=O)Nc1cc(C(F)(F)F)cc(C(F)(F)F)c1 [13g·HCl] | > 50 µM
COc1cc(NC(=O)COc2ccc(/C=C3\SC(=O)N(Cc4cccc5cc6ccccc6nc45)C3=O)cc2OC)cc(OC)c1 [13b·HCl] | > 50 µM
O=C(COc1ccc(/C=C2\SC(=O)N(Cc3c4ccccc4nc4ccccc34)C2=O)cc1)Nc1ccccc1 [7a·2HCl] | 29.9 µM

IC50 for O=C(COc1ccc(/C=C2\SC(=O)N(Cc3cccc4cc5ccccc5nc34)C2=O)cc1)Nc1ccc([N+](=O)[O-])cc1 [8d·HCl] ? > 50 µM

Let us now turn to COc1cc(/C=C2\SC(=O)N(Cc3cccc4cc5ccccc5nc34)C2=O)ccc1OCC(=O)Nc1ccccc1C(F)(F)F [13e·HCl] > 50 µM

Now try O=C(COc1ccc(/C=C2\SC(=O)N(Cc3c4ccccc4nc4ccccc34)C2=O)cc1)Nc1cccc(C(F)(F)F)c1 [7f·2HCl] . 39.5 µM

Would you mind doing COc1cc(/C=C2\SC(=O)N(Cc3cccc4cc5ccccc5nc34)C2=O)ccc1OCC(=O)Nc1cc(OC)c(OC)c(OC)c1.Cl [13c·HCl] as well? > 50 µM

Likewise for COc1cc(/C=C2\SC(=O)N(Cc3c4ccccc4nc4ccccc34)C2=O)ccc1OCC(=O)Nc1ccccc1C(F)(F)F [12e·2HCl] ? > 50 µM

Continue with COc1cc(/C=C2\SC(=O)N(Cc3c4ccccc4nc4ccccc34)C2=O)ccc1OCC(=O)Nc1ccccc1 [Compound 12a·2HCl] 35.5 µM

Now try O=C(COc1ccc(/C=C2\SC(=O)N(Cc3cccc4cc5ccccc5nc34)C2=O)cc1)Nc1cccc(C(F)(F)F)c1 [8f·HCl] . > 50 µM

====

Measured Stern–Volmer quenching constant Ksv, listed per entry.
- SYSTEM TESTED: bovine serum albumin (BSA) (Bos taurus, UniProt P02769)
- Construct: purchased Sigma-Aldrich
- Sequence (P02769 25-607): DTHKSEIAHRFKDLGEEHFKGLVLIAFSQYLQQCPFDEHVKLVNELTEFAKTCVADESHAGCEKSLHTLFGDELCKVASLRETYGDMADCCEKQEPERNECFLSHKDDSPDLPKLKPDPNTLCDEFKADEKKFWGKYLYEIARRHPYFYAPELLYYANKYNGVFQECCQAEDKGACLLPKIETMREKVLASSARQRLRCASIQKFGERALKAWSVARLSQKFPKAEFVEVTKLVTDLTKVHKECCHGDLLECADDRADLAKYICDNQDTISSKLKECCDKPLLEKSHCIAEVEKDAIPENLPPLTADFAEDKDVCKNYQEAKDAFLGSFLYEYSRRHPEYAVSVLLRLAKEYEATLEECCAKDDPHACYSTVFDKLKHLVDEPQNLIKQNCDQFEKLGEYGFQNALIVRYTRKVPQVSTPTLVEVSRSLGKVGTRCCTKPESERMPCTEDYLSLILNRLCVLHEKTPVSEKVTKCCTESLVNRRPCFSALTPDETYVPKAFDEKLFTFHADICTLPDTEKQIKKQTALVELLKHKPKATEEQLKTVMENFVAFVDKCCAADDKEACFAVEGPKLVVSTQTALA
- EXPERIMENTAL DETAILS: BSA fluorescence quenching (Stern–Volmer)
- Type: binding
- REPORTED CONDITIONS: BSA 1 μM, excitation 280 nm, PBS pH 7.4, 24 °C

COc1cc(/C=C2\SC(=O)N(Cc3c4ccccc4nc4ccccc34)C2=O)ccc1OCC(=O)Nc1ccc([N+](=O)[O-])cc1.Cl.Cl [12d·2HCl] | 10.47 × 10^4 [M^−1]
COc1cc(/C=C2\SC(=O)N(Cc3cccc4cc5ccccc5nc34)C2=O)ccc1OCC(=O)Nc1cc(OC)c(OC)c(OC)c1.Cl [13c·HCl] | 10.58 × 10^4 [M^−1]
COc1cc(/C=C2\SC(=O)N(Cc3cccc4cc5ccccc5nc34)C2=O)ccc1OCC(=O)Nc1ccc([N+](=O)[O-])cc1 [Compound 13d] | 9.59 × 10^4 [M^−1]

Request the reported Stern–Volmer quenching constant Ksv associated with Cl.Cl.O=C(COc1ccc(/C=C2\SC(=O)N(Cc3c4ccccc4nc4ccccc34)C2=O)cc1)Nc1ccccc1C(F)(F)F [Compound 7e·2HCl] 10.74 × 10^4 [M^−1]

====

- Test system: A549
- EXPERIMENTAL DETAILS: MTT assay, A549
- Assay type: cell-based, human
- REPORTED CONDITIONS: Homo sapiens, A549, 48 h, lung adenocarcinoma, 48 h incubation
METRIC NAME: IC50

COc1cc(/C=C2\SC(=O)N(Cc3c4ccccc4nc4ccccc34)C2=O)ccc1OCC(=O)Nc1cc(C(F)(F)F)cc(C(F)(F)F)c1 [Compound 12g] | > 50 µM
O=C(COc1ccc(/C=C2\SC(=O)N(Cc3cccc4cc5ccccc5nc34)C2=O)cc1)Nc1cccc(C(F)(F)F)c1 | > 50 µM
O=C(COc1ccc(/C=C2\SC(=O)N(Cc3cccc4cc5ccccc5nc34)C2=O)cc1)Nc1ccccc1 | > 50 µM
O=C(COc1ccc(/C=C2\SC(=O)N(Cc3c4ccccc4nc4ccccc34)C2=O)cc1)Nc1cc(C(F)(F)F)cc(C(F)(F)F)c1 | 18.9 µM
COc1cc(/C=C2\SC(=O)N(Cc3c4ccccc4nc4ccccc34)C2=O)ccc1OCC(=O)Nc1cc(OC)c(OC)c(OC)c1 [Compound 12c] | > 50 µM

Shift focus to the following entry.
Give the reported IC50 for COc1cc(/C=C2\SC(=O)N(Cc3cccc4cc5ccccc5nc34)C2=O)ccc1OCC(=O)Nc1cccc(C(F)(F)F)c1 [Compound 13f] (system: A549). > 50 µM
